- targetOfAssay: 5-HT2 receptor (Rattus norvegicus)
- Construct: endogenous in cells; host or cells: A7r5 rat vascular smooth muscle cells
- Sequence (P14842 whole entry): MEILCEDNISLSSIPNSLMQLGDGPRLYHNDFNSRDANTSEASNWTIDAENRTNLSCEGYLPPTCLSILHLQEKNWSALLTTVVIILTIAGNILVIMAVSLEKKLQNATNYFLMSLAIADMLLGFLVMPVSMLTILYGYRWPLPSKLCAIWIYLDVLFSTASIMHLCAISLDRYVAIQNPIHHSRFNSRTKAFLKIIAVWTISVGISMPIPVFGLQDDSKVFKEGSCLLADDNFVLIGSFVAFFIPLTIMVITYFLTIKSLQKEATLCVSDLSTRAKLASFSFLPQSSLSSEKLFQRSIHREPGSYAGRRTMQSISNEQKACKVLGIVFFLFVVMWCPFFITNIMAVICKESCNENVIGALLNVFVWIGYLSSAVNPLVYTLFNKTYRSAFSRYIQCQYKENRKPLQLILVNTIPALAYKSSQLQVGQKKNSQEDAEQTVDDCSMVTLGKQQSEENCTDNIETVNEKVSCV
- assayName: 5-HT2 functional assay: [Ca2+]i mobilization (FLIPR) in A7r5 cells
- Assay type: cell-based
- measurementParameters: A7r5 rat vascular smooth muscle cells, FLIPR; read-out: EC50, nM (5-HT2 functional, [Ca2+]i mobilization)
- Description: 5-HT2 Functional Assay: [Ca^2+]i Mobilization The receptor-mediated mobilization on intracellular calcium ([Ca^2+]i) was studied using the Fluorescence Imaging Plate Reader (FLIPR) instrument. […] The compound plate and cell plate were placed in the FLIPR instrument. At the beginning of an experimental run, a signal test was performed to check the basal fluorescence signal from the dye-loaded cells and the uniformity of the signal across the plate. […]
quantity: EC50 (nM)
Express it in nM; write the number only.

Which measured EC50 value corresponds to COc1cc(CC(C)N)c(OC)cc1I (stereo not shown) [DOI, reference compound] ?
30.2
